system: Spodoptera littoralis; test: Phagostimulant activity against sixth stadium larvae of Spodoptera littoralis assessed as antifeedant index at 100 ppm after 16 hrs; format: functional
Catalogue of Activity readings, one per entry.

Below, each entry is followed by its recorded Activity result.
COMPOUND	PROPERTY	MEASURED
CC(=O)OCC[C@H](CC[C@@]1(C)[C@H](C)[C@@H](OC(C)=O)[C@H](OC(C)=O)[C@]23C(=O)O[C@H](C[C@H]12)C[C@]31CO1)COC(C)=O	Activity	-27.4%
C/C=C(\C)C(=O)O[C@H]1O[C@@H]2C[C@@H]3[C@@](C)(CC[C@@H](CCOC(C)=O)COC(C)=O)[C@H](C)[C@@H](OC(C)=O)[C@H](OC(C)=O)[C@]13[C@@]1(CO1)C2	Activity	-0.4%

Need Activity of CC(=O)OCC[C@H](CC[C@@]1(C)[C@H](C)[C@@H](OC(C)=O)[C@H](OC(C)=O)[C@]23[C@@H]1C[C@H](C[C@]21CO1)O[C@@H]3O)COC(C)=O , thanks.
-38.8%

What do you get for CO[C@H]1O[C@@H]2C[C@@H]3[C@@](C)(CC[C@H]4CCOC4=O)[C@H](C)[C@@H](OC(C)=O)[C@H](OC(C)=O)[C@]13[C@@]1(CO1)C2 ?
-29.5%

Same thing, different compound: CC(=O)O[C@@H]1[C@@H](C)[C@](C)(CC[C@H]2CCOC2=O)[C@H]2C[C@@H](OC(=O)C(C)C)C[C@]3(CO3)[C@]2(C=O)[C@H]1OC(C)=O
-10%

Repeat with C/C=C(\C)C(=O)O[C@H]1O[C@@H]2C[C@@H]3[C@@](C)(CC[C@H]4CCO[C@H]4O)[C@H](C)[C@@H](O)[C@H](OC(C)=O)[C@]13[C@@]1(CO1)C2 [SCUTEGALIN B]
-27%

From: ChEMBL document CHEMBL1141826
